The reported numbers originate from PubChem BioAssay.

protocolDescription: Plasmodium falciparum growth inhibition, primary screen, strain 3D7, DAPI fluorescence, 100 nL (AID 1184);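 further: parasites grown inside human red blood cells in medium with human serum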
experimentalContext: P. falciparum 3D7 growth, 3 d, higher = more signal
endpointLabel: z-score

- compound: "C=CC[C@]1(C(=O)NCCN2CCOCC2)N=C(c2ccc(OCCCO)cc2)O[C@H]1c1ccccc1"
  measurement: -0.188
- compound: "CC1CC/C=C\\[C@H]2OC34C=CCN(CCN5CCOCC5)C(=O)[C@H]3N(C(CO)C(C)C)C(=O)[C@@H]4C2C(=O)O1 (stereo not given in full)"
  measurement: -0.0648
- compound: "CCOC(=O)C[C@H]1[C@H](OC(=O)c2cc3ccccc3oc2=O)[C@@H](NC(=O)Cc2ccc(OC)cc2)c2cc(OCCCO)ccc2N1C(=O)Cc1ccc(OC)cc1"
  measurement: -0.912
- compound: "COc1ccc([Si](C)(C)[C@H]2[C@H](CC(=O)N(CCO)Cc3ccccc3)O[C@@]3(C(=O)N(Cc4ccc(N5C(=O)c6cccc7cccc5c67)cc4)c4ccccc43)[C@@H]2C)cc1"
  measurement: -2.11
- compound: "COCCOC(=O)N1C(=O)[C@@]2(c3cc(C#CCC(C(=O)OC)C(=O)OC)ccc31)[C@H](C(N)=O)[C@H]1C(=O)O[C@H](c3ccccc3)[C@H](c3ccccc3)N1[C@@H]2c1ccccc1OCCO"
  measurement: -1.93
- compound: "O=C1OC[C@@H](c2ccccc2)n2cc(/C=C/c3ccccc3)cc21"
  measurement: -0.0812
- compound: "C=C(CCCC)/C(=C/C[C@@H](OC(C)=O)c1ccc(OCCO)cc1)c1cc(C(=O)OC)ccc1OC"
  measurement: -3.06
- compound: "CCCCCCCCCCC(O)C1C=CC2C(=O)N(C)C(=O)C2N1Nc1ccccc1 (stereo not given)"
  measurement: -0.0339
- compound: "[N-]=[N+]=Nc1ccccc1C[C@@]1(C(=O)NCC(O)CO)N=C(c2ccc(OCCCO)cc2)O[C@@H]1c1ccccc1N=[N+]=[N-] (stereo not given in full)"
  measurement: -2.15
- compound: "C=CCNC(=O)[C@H]1[C@@H]2C(=O)O[C@@H](c3ccccc3)[C@@H](c3ccccc3)N2[C@@H](c2ccc(O)cc2)[C@]12C(=O)Nc1ccc(C#CCC(C(=O)OC)C(=O)OC)cc12"
  measurement: -0.214
- compound: "C=CC[C@H](O)c1ccc(O)c(F)c1"
  measurement: -0.418
- compound: "O=C1c2ccccc2[C@@]2(Cc3ccccc3N(CC(F)(F)F)C2=O)[C@H](c2ccc(CO)cc2)N1Cc1ccccc1"
  measurement: -1.17
- compound: "C=C(/C=C\\CNS(=O)(=O)c1ccc(C)cc1)[C@H](O)[C@H]1CCCN1S(=O)(=O)c1ccccc1[N+](=O)[O-]"
  measurement: -1.8
- compound: "COCCOC(=O)N1C(=O)[C@@]2(c3cc(C#CCNC(N)=O)ccc31)[C@H](C(=O)N1CCN(c3ncccn3)CC1)[C@H]1C(=O)O[C@H](c3ccccc3)[C@H](c3ccccc3)N1[C@@H]2c1ccc(O)cc1"
  measurement: 0.614
- compound: "CN1C(=O)C2C(C1=O)C1C=C(CCCO)C2C(C2CC2)N1C (stereo not given)"
  measurement: 0.119
- compound: "COCCOC(=O)N1C(=O)[C@@]2(c3cc(C#CCNC(N)=O)ccc31)[C@H](c1ccccc1OCCO)N1[C@H](c3ccccc3)[C@H](c3ccccc3)OC(=O)[C@H]1[C@@H]2C(=O)N1CCCCCCC1"
  measurement: -2.13
- compound: "C=C(COC)C(=O)CC[C@H](OC(C)=O)c1ccccc1OCCO"
  measurement: -2.64
- compound: "CN1C(=O)C2CC=C(C3=CCO[C@@H]3[C@H]3CCCN3S(=O)(=O)c3ccccc3[N+](=O)[O-])CC2C1=O (stereo not given in full)"
  measurement: 0.561
- compound: "C=C(COC)C(=O)CC[C@H](OC(C)=O)c1ccc(CO)o1"
  measurement: -0.689
- compound: "CO[C@H]1O[C@H](CO)[C@@H](OC(=O)Nc2cccc(F)c2)[C@H](OC(=O)c2cc3ccccc3[nH]2)[C@H]1OC(=O)c1cc2ccccc2[nH]1"
  measurement: -0.194
- compound: "CCc1cccc(NC(=O)O[C@H]2[C@H](OC(=O)Nc3ccccc3-c3ccccc3)[C@H](OC(=O)Nc3ccccc3-c3ccccc3)[C@@H](OC)O[C@@H]2CO)c1"
  measurement: -2.53
- compound: "CN(C)CCCC[C@@H]1NC(=O)[C@H]2C[C@@H](C(=O)NCCCCCCNC(=O)CS)[C@@H](c3cccc(OCCO)c3)N2C1=O"
  measurement: 0.162
- compound: "Cc1ccc(S[C@]2(C(=O)NCCN3CCOCC3)CC(=O)N(C(C)C)[C@@H]2c2ccc(CO)cc2I)cc1"
  measurement: -0.191
- compound: "C=C(CCCC)C(=O)CC[C@H](OC(=O)c1ccccc1-c1ccccc1C(=O)O)c1cccc(OCCO)c1"
  measurement: -2.65
- compound: "O=C(NC1CC1)[C@@H]1c2ccccc2C(=O)N(C2CCCCC2)[C@H]1c1ccc(CO)cc1"
  measurement: -1.1
- compound: "CCCCC(=C=CC[C@@H](O)c1ccc(OCCO)cc1)CCO"
  measurement: -1.39
- compound: "Cc1ccc(S[C@]2(C(=O)NCC(C)C)CC(=O)N(C(C)C)[C@@H]2c2ccc(CO)cc2I)cc1"
  measurement: -1.12
- compound: "CC(C)N1C(=O)[C@@]2(Cc3ccccc31)c1ccccc1C(=O)N(Cc1ccccc1C(F)(F)F)[C@H]2c1ccc(CO)cc1"
  measurement: -0.35
- compound: "CC(=O)NCCCC[C@@H]1NC(=O)[C@H]2C[C@@H](C(=O)O)[C@@H](c3cccc(OCCO)c3)N2C1=O"
  measurement: -0.48
- compound: "COc1cc(Cc2cc3c(c(CCc4ccccc4)n2)[Si](C(C)C)(C(C)C)O[C@H]3c2ccccc2)cc(OC)c1OC"
  measurement: 0.578
